All values here come from patent US11261186B2.

Target: hGPR120 (Homo sapiens, UniProt Q5NUL3)
Sequence (Q5NUL3 whole entry): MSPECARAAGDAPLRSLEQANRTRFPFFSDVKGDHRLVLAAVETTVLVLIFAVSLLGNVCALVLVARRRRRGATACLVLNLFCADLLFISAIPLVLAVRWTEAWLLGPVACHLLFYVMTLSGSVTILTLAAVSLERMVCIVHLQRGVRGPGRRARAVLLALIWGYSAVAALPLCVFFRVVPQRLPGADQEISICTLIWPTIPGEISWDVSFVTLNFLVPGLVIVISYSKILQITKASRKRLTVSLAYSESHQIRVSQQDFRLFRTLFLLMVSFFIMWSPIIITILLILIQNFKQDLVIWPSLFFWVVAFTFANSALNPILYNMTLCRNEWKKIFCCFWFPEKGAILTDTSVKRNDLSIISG
Assay: Measurement of Activity of GPR120 Agonist (Cell-Based Assay), Calcium 5 dye fluorescence
Details: CHO-K1 cells expressing Ga16 and hGPR120
Experimental: CHO-K1 cells expressing Ga16 and hGPR120 were dispensed into each well of a 96-well plate (3×10^4 cells/100 μl/well) and then incubated in 5% CO2, 37° C. incubator for 18 hours. […] Each well was treated with 50 μl of the agonist compounds using Plexstation II, and then fluorescence was measured at Ex 485 nm and Em 525 nm. Fluorescence increased by the serially diluted GPR120 agonists is calculated as a relative percent (%) value based on the fluorescence represented by the treatment of 1% DMSO only. […]
Catalogue of EC50 readings, one per entry.
property: EC50

structure-smiles-string: O=C(O)CC1CCN(c2c(F)cc(-c3cccc(OCC4CCC4)n3)cc2F)CC1
data-value: 0.2 to 2 µM
--
structure-smiles-string: CC1(C)Cc2c(cccc2-c2ccc(OCCCC(=O)O)cc2)O1
data-value: < 0.2 µM
--
structure-smiles-string: CC(C)n1cc(Cl)c2ccc(-c3cc(F)c(OCCCC(=O)O)c(F)c3)cc21
data-value: 2 to 20 µM
--
structure-smiles-string: Fc1cc(-c2cccnc2SC2CCC2)cc(F)c1OCCCc1nnn[nH]1
data-value: 0.2 to 2 µM
--
structure-smiles-string: CC(C)COc1nc(-c2cc(F)c(N3CCC(CC(=O)O)CC3)c(F)c2)ncc1F
data-value: 0.2 to 2 µM
--
structure-smiles-string: O=C(O)CCCOc1c(F)cc(-c2cccc(COCC3CC3)n2)cc1F
data-value: 0.2 to 2 µM
--
structure-smiles-string: CCN(CCCC(=O)O)c1c(F)cc(-c2cccnc2OCC2CCC2)cc1F
data-value: 0.2 to 2 µM
--
structure-smiles-string: CC(C)Oc1ccc(F)cc1-c1cc(F)c(N(C)CCCC(=O)O)c(F)c1
data-value: < 0.2 µM
--
structure-smiles-string: Cc1cccc(-c2cc3c(-c4cc(F)c(N5CCC(CC(=O)O)CC5)c(F)c4)cccc3s2)c1
data-value: 0.2 to 2 µM
--
structure-smiles-string: c1cnc(SC2CCC2)c(-c2ccc(CCCc3nnn[nH]3)cc2)c1
data-value: 0.2 to 2 µM
--
structure-smiles-string: O=C(O)CCCOc1c(F)cc(-n2ccc3ccc(OC4CCC4)cc32)cc1F
data-value: < 0.2 µM
--
structure-smiles-string: Cc1cc(Oc2ccc(C(F)(F)F)cc2)nc(-c2cc(F)c(N3CCC(CC(=O)O)CC3)c(F)c2)n1
data-value: 2 to 20 µM
--
structure-smiles-string: O=C(O)CCCOc1c(Cl)cc(-c2cccc(OC3CCC3)n2)cc1Cl
data-value: < 0.2 µM
--
structure-smiles-string: O=C(O)CCCOc1ccc(-c2cccnc2OC2CCCC2)cc1F
data-value: < 0.2 µM
--
structure-smiles-string: O=C(O)CCCOc1c(F)cc(-n2ccc3cccc(Cl)c32)cc1F
data-value: < 0.2 µM
--
structure-smiles-string: O=C(O)CC1CCN(c2c(F)cc(-c3csc(OC4CCC4)n3)cc2F)CC1
data-value: 0.2 to 2 µM
--
structure-smiles-string: O=C(O)CC1CCN(c2c(F)cc(-c3cccc(OC4CCC4)n3)cc2F)CC1
data-value: < 0.2 µM
--
structure-smiles-string: O=C(O)CCCOc1c(F)cc(-c2cc(OC3CCC3)cc(Cl)n2)cc1F
data-value: < 0.2 µM
--
structure-smiles-string: CN(CCCC(=O)O)c1c(F)cc(-c2cccc(OCC3CC3)n2)cc1F
data-value: < 0.2 µM
--
structure-smiles-string: Cc1ccc(-c2cc(F)c(OCCCC(=O)O)c(F)c2)cc1OCC1CC1
data-value: < 0.2 µM
--
structure-smiles-string: CC1(C)Cc2cc(F)cc(-c3cc(F)c(OCCCC(=O)O)c(F)c3)c2N1
data-value: 0.2 to 2 µM
--
structure-smiles-string: COCCOc1cc(C)nc(-c2cc(F)c(N3CCC(CC(=O)O)CC3)c(F)c2)n1
data-value: 0.2 to 2 µM
--
structure-smiles-string: O=C(O)CC1CCN(c2c(F)cc(-c3ccc(COCC4CC4)s3)cc2F)CC1
data-value: 2 to 20 µM
--
structure-smiles-string: Cc1cc(Oc2cccc(C(F)(F)F)c2)nc(-c2cc(F)c(N3CCC(CC(=O)O)CC3)c(F)c2)n1
data-value: 2 to 20 µM
--
structure-smiles-string: CC(C)CNc1ccnc(-c2cc(F)c(N3CCC(CC(=O)O)CC3)c(F)c2)n1
data-value: 0.2 to 2 µM
--
structure-smiles-string: O=C(O)COCC(F)(F)c1ccc(-c2cccnc2OC2CCCC2)cc1
data-value: 2 to 20 µM
